Reported EC50 values for a set of molecules
EXPERIMENT_NOTES: cytotoxicity toward DRD oncogenic fibroblasts, dose response, cell-based, non-viral oncogenic, luminescence (AID 1934)
Type: functional
CONDITION_LABEL: Homo sapiens
Activity calls are given as the source filed them. Rule as the data show it: actives have a measured EC50 and inactives only a lower limit.

INPUT: # EC50 lookup, item C=CCOc1ccccc1CN(C(=O)CCl)c1ccc2c(c1)OCO2
OUTPUT: 5.04 µM (active)

INPUT: # iterate: CCOc1ccc2nc(NC(=O)c3ccoc3C)sc2c1
OUTPUT: 1.97 µM (active)

INPUT: # iterate: O=C(NCCCn1ccnc1)c1ccc(N2CCCCCC2)c([N+](=O)[O-])c1
OUTPUT: 25.6 µM (active)

INPUT: # iterate: O=C(NCC1CCCO1)c1cc2c([nH]c3ccccc32)c(-c2ccc(F)cc2)n1 (stereo unspecified)
OUTPUT: 23.6 µM (active)

INPUT: # iterate: COc1ccccc1NC1=C(C(N)=O)C(=N)C(C(=O)Nc2cccc(Cl)c2Cl)S1 (stereo unspecified)
OUTPUT: 4.27 µM (active)

INPUT: # iterate: COC(=O)CCn1c(C)cc(C(=O)COc2ccccc2C(N)=O)c1C
OUTPUT: > 150 µM (not active)
